target: human glutathione transferase-tagged FXR-LBD (Homo sapiens); construct: human glutathione transferase-tagged FXR-LBD (Life Technologies, USA); purchased Life Technologies, USA; assay: FXR AlphaScreen coactivator recruitment assay (human); format: biochemical; parameters: dose or concentration left out as unconfirmed; settings: read-out: hFXR Efficacy;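 also: CDCA at 50 µM taken as 100%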
Sequence (Q96RI1 262-486 limits assumed): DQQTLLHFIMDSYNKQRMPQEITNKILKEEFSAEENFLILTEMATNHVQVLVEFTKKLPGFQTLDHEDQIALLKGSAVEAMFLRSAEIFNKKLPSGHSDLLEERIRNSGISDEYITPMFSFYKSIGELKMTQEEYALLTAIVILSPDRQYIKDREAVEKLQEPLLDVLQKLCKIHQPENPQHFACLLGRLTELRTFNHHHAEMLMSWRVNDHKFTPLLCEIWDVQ
Please go through the items and note down their Emax.
Give a bare numeral; the unit % is implied.

Query: Param item = CC[C@H]1[C@@H](O)C2C3CC[C@H]([C@H](C)CCc4nn[nH]n4)[C@@]3(C)CCC2[C@@]2(C)CC[C@@H](O)C[C@@H]12 (stereo partly drawn) ; retrieve measured Emax.
Result: 173

Query: Param item = CC[C@H]1[C@@H](O)[C@@H]2[C@H](C[C@H](O)[C@]3(C)[C@@H]([C@H](C)C[C@H](F)C(=O)O)CC[C@@H]23)[C@@]2(C)CC[C@@H](O)C[C@@H]12 ; retrieve measured Emax.
Result: 113

Query: Param item = CC[C@H]1[C@@H](O)C2C3CC[C@H]([C@H](C)CC(=O)NCCOS(=O)(=O)[O-])[C@@]3(C)CCC2[C@@]2(C)CC[C@@H](O)C[C@@H]12.[Na+] (stereo partly drawn) ; retrieve measured Emax.
Result: 136

====

assay: pKa
MEASURED_ENDPOINT: pKa
// return a plain number; no unit text

Query: Param item = CC[C@@H]1C2C[C@H](O)CC[C@]2(C)C2CC[C@@]3(C)C(CC[C@@H]3[C@H](C)Cc3nc(=O)o[nH]3)C2[C@@H]1O (some centres unmarked) [Compound 14] ; retrieve measured pKa.
Result: 5

Query: Param item = CC[C@H]1[C@@H](O)C2C3CC[C@H]([C@H](C)CCc4nn[nH]n4)[C@@]3(C)[C@@H](O)CC2[C@@]2(C)CC[C@@H](O)C[C@@H]12 (some centres unmarked) [Compound 12] ; retrieve measured pKa.
Result: 5.59

Query: Param item = C[C@H](CC(=O)O)[C@H]1CC[C@H]2[C@@H]3[C@H](O)C[C@@H]4C[C@H](O)CC[C@]4(C)[C@H]3CC[C@]12C [Nor-CDCA, 24-nor-CDCA, reference compound] ; retrieve measured pKa.
Result: 5

Query: Param item = CC[C@H]1[C@@H](O)C2C3CC[C@H]([C@H](C)C[C@H](C)C(=O)O)[C@@]3(C)[C@@H](O)CC2[C@@]2(C)CC[C@@H](O)C[C@@H]12 (some centres unmarked) [Ref. Cmpd. A, reference compound] ; retrieve measured pKa.
Result: 5

====

Please go through the items and note down their Albumin binding (%).
Molecular target: bovine serum albumin (Bos taurus, UniProt P02769)
Sequence (P02769 25-607): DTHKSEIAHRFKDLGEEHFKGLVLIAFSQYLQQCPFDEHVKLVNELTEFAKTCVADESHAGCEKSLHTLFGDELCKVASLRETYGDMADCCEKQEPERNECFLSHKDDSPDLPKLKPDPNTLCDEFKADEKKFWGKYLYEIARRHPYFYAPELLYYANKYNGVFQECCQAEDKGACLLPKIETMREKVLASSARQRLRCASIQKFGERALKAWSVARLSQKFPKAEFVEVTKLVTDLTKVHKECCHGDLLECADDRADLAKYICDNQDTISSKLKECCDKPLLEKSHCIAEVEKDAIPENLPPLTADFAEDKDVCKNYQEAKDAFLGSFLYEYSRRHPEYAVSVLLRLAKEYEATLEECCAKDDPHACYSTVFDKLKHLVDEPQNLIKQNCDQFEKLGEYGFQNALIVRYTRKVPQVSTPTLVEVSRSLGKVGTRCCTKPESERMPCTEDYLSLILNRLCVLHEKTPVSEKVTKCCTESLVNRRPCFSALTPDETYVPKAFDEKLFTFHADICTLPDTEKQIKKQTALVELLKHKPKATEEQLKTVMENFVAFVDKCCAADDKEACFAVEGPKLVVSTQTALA
Assay: Albumin binding by equilibrium dialysis
Assay type: in vitro ADME
Settings: 5% bovine serum albumin saline solution, 25° C.
Method: BA was dissolved at a concentration of […] in 5% bovine serum albumin saline solution and left to stand for 24 hours at 25° C. Two milliliters of this solution was dialyzed in cellulose sacs with a molecular weight cut-off of 12-14 kDa (Spectra/Por; Spectrum Medical Industries Inc., Rancho Dominguez, Calif.) against 25 ml of saline solution. […] BA concentrations in the starting solution and in the dialyzed solution were determined by HPLC-ES-MS/MS as reported below.
Give a bare numeral; the unit % is implied.

Query: Param item = CC[C@H]1[C@@H](O)C2C3CC[C@H]([C@H](C)CC(F)(F)C(=O)O)[C@@]3(C)CCC2[C@@]2(C)CC[C@@H](O)C[C@@H]12 (some centres unmarked) ; retrieve measured Albumin binding (%).
Result: 66

Query: Param item = C[C@H](CCC(=O)O)[C@H]1CC[C@H]2[C@@H]3[C@@H](O)C[C@@H]4C[C@H](O)CC[C@]4(C)[C@H]3CC[C@]12C [UDCA, ursodeoxycholic acid, reference compound] ; retrieve measured Albumin binding (%).
Result: 94

Query: Param item = CC[C@H]1[C@@H](O)C2C3CC[C@H]([C@H](C)C[C@H](C)C(=O)O)[C@@]3(C)[C@@H](O)CC2[C@@]2(C)CC[C@@H](O)C[C@@H]12 (some centres unmarked) [Ref. Cmpd. A, reference compound] ; retrieve measured Albumin binding (%).
Result: 62

Query: Param item = C[C@H](CCC(=O)NCC(=O)O)[C@H]1CC[C@H]2[C@@H]3[C@H](O)C[C@@H]4C[C@H](O)CC[C@]4(C)[C@H]3C[C@H](O)[C@]12C [GCA, reference compound] ; retrieve measured Albumin binding (%).
Result: 65

Query: Param item = CC[C@H]1[C@@H](O)C2C3CC[C@H]([C@H](C)CC(=O)NCCOS(=O)(=O)[O-])[C@@]3(C)CCC2[C@@]2(C)CC[C@@H](O)C[C@@H]12.[Na+] (some centres unmarked) ; retrieve measured Albumin binding (%).
Result: 86

====

Target: mTGR5 (Mus musculus, UniProt Q80SS6)
Sequence (Q80SS6 1-329): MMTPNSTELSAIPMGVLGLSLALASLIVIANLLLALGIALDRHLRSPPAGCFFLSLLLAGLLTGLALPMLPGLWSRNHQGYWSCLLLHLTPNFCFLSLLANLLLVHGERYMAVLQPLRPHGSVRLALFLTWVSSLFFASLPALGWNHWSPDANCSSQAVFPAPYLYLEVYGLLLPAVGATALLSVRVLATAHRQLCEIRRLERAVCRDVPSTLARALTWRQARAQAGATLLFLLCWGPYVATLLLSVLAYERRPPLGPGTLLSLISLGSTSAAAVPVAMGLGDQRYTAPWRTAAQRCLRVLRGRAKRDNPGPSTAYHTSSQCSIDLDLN
Test: TGR5 activity: cAMP in mTGR5 CHO-Pi10 clone 4 cells
Details: mTGR5 CHO cells, value in parentheses
MEASURED_ENDPOINT: log10 EC50 (log10 of the value in nM)
Each number you see is log10 of EC50, and the unit inside the log is nM.

Query: Param item = CC[C@H]1[C@@H](O)[C@@H]2[C@H](C[C@H](O)[C@]3(C)[C@@H]([C@H](C)C[C@H](F)C(=O)O)CC[C@@H]23)[C@@]2(C)CC[C@@H](O)C[C@@H]12 [Compound 8] ; retrieve measured log10 EC50.
Result: 2.89

Query: Param item = CC[C@H]1[C@@H](O)C2C3CC[C@H]([C@H](C)CC(=O)NCCO)[C@@]3(C)CCC2[C@@]2(C)CC[C@@H](O)C[C@@H]12 (some centres unmarked) [Compound 19] ; retrieve measured log10 EC50.
Result: 1.90

Query: Param item = CC[C@H]1[C@@H](O)[C@@H]2[C@H](C[C@H](O)[C@]3(C)[C@@H]([C@H](C)C[C@@H](O)C(=O)O)CC[C@@H]23)[C@@]2(C)CC[C@@H](O)C[C@@H]12 [Compound 2] ; retrieve measured log10 EC50.
Result: 3.18

Query: Param item = CC[C@H]1[C@@H](O)[C@@H]2[C@H](C[C@H](O)[C@]3(C)[C@@H]([C@H](C)C[C@@H](F)C(=O)O)CC[C@@H]23)[C@@]2(C)CC[C@@H](O)C[C@@H]12 [Compound 9] ; retrieve measured log10 EC50.
Result: 3.26

Query: Param item = CC[C@H]1[C@@H](O)C2C3CC[C@H]([C@H](C)C[C@@H](CO)C(=O)O)[C@@]3(C)[C@@H](O)CC2[C@@]2(C)CC[C@@H](O)C[C@@H]12 (some centres unmarked) [Compound 4] ; retrieve measured log10 EC50.
Result: 3.11

====

Please go through the items and note down their Emax.
target: mTGR5 (Mus musculus); construct: expressed in transfected cells; host or cells: CHO-Pi10 clone 4; test: TGR5 activity: cAMP in mTGR5 CHO-Pi10 clone 4 cells; assay type: cell-based; conditions: CHO, 0.5 h, read-out: (mTGR5 CHO) Efficacy
Give a bare numeral; the unit % is implied.

Query: Param item = CC[C@H]1[C@@H](O)C2C3CC[C@H]([C@H](C)C[C@@H](CO)C(=O)O)[C@@]3(C)[C@@H](O)CC2[C@@]2(C)CC[C@@H](O)C[C@@H]12 (some centres unmarked) [Compound 4] ; retrieve measured Emax.
Result: 102

Query: Param item = CC[C@H]1[C@@H](O)C2C3CC[C@H]([C@H](C)CC(=O)NCCO)[C@@]3(C)CCC2[C@@]2(C)CC[C@@H](O)C[C@@H]12 (some centres unmarked) [Compound 19] ; retrieve measured Emax.
Result: 106

Query: Param item = CC[C@H]1[C@@H](O)C2C3CC[C@H]([C@H](C)CCc4nnc(NS(C)(=O)=O)o4)[C@@]3(C)CCC2[C@@]2(C)CC[C@@H](O)C[C@@H]12 (some centres unmarked) [Compound 23] ; retrieve measured Emax.
Result: 110

Query: Param item = CC[C@H]1[C@@H](O)C2C3CC[C@H]([C@H](C)C[C@H](CO)C(=O)O)[C@@]3(C)[C@@H](O)CC2[C@@]2(C)CC[C@@H](O)C[C@@H]12 (some centres unmarked) [Compound 5] ; retrieve measured Emax.
Result: 84.6

Query: Param item = CC[C@H]1[C@@H](O)[C@@H]2[C@H](C[C@H](O)[C@]3(C)[C@@H]([C@H](C)C[C@@H](CF)C(=O)O)CC[C@@H]23)[C@@]2(C)CC[C@@H](O)C[C@@H]12 [Compound 6] ; retrieve measured Emax.
Result: 81
